From: the supplement of paper PMC10567573

B1: C22orf31 (parent)
chain: YSLELGKAIKQKLWEALCSQGAIS

- Variants of: B1
- Experimental protocol: protein stability index of a GFP-peptide fusion (GPS, HEK-293T) (PSI 1-6); higher = more stable;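 also: lentivirally expressed fusions sorted by FACS into six bins by GFP to DsRed ratio, PSI derived from sequencing read proportions per bin multiplied by bin number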
- Stated conditions: c terminus: a fixed tail appended
Endpoint label: protein stability index
Give your answer as a number; write no unit.

Recorded protein stability index, per entry:
Mutant designation	protein stability index
C18Y	2.52
A8R	2.51
L13Q	1.92
L17P	2.08

Now turn to the next variant.
**Query** Look at this variant and give its reported protein stability index. G21I
**Result** 4.15
